Values were extracted from patent US20110195911A1.

# System: MCF-7 breast cancer cells
# Test description: MTT cell toxicity assay in MCF-7 breast cancer cells
# Type: cell-based
# Conditions: MCF-7 cells, MTT, final 0.5% FBS, two days with compound
Where a SMILES comes first, the peptide text is derived from it. The star is where a group is joined. Palmitoyl = CCCCCCCCCCCCCCCC(=O)*
Could you please report measured GI50 for the items listed next?
Please state the figure in nM; there is no need to write the unit.

Ask | Any idea what its GI50 is? The compound is CCCCCCCCCCCCCCCC(=O)N[C@@H](Cc1c[nH]cn1)C(=O)N[C@@H](CCCNC(=N)N)C(=O)N[C@@H](CCCCN)C(=O)N[C@@H](CCCNC(=N)N)C(=O)N[C@@H](CC(N)=O)C(=O)N[C@@H](CC(N)=O)C(=O)N[C@@H](CO)C(=O)N[C@@H](CCCNC(=N)N)C(=O)N[C@@H](CC(C)C)C(=O)NCC(N)=O [Peptide 2, Pal-HRKRNNSRLG-NH2] (Palmitoyl-HRKRNNSRLG-NH2)
Reply | 1300

Ask | // returns reported GI50 for input CCCCCCCCCCCCCCCC(=O)N[C@@H](Cc1c[nH]cn1)C(=O)N[C@@H](CCCNC(=N)N)C(=O)N[C@@H](CCCCN)C(=O)N[C@@H](CCCNC(=N)N)C(=O)N[C@@H](CC(N)=O)C(=O)N[C@@H](CC(N)=O)C(=O)N[C@@H](CO)C(=O)N[C@@H](CCCNC(=N)N)C(=O)N[C@@H](CC(C)C)C(=O)NCC(=O)N[C@@H](CC(N)=O)C(=O)NCC(=O)N[C@H](C(N)=O)C(C)C [Peptide 11, Pal-HRKRNNSRLGNGV-NH2] (Palmitoyl-HRKRNNSRLGNGV-NH2)
Reply | 2500

Ask | I am curious: what GI50 value has been reported for CCCCCCCCCCCCCCCC(=O)N[C@@H](CC(N)=O)C(=O)N[C@@H](CC(N)=O)C(=O)N[C@@H](CO)C(=O)N[C@@H](CCCNC(=N)N)C(=O)N[C@@H](CC(C)C)C(=O)NCC(=O)N[C@@H](CC(N)=O)C(=O)NCC(=O)N[C@H](C(=O)N[C@@H](CC(C)C)C(=O)N[C@@H](Cc1ccc(O)cc1)C(N)=O)C(C)C [Peptide 15, Pal-NNSRLGNGVLY-NH2] (Palmitoyl-NNSRLGNGVLY-NH2) ?
Reply | 100
